TEST_SYSTEM: sortase A (SrtA) (Staphylococcus aureus)
Sequence (Q2FV99 whole entry): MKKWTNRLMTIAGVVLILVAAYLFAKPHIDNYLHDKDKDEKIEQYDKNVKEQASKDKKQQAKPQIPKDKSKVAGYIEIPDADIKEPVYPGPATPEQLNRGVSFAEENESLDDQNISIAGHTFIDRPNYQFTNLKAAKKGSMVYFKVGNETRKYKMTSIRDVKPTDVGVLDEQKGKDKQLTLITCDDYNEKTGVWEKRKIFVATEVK
OBSERVABLE: pKd
Remember, pKd is on a log scale: it is -log10 of the molar concentration.

For the record Nc1c(Cl)cccc1C(=O)Nc1ccccc1C(=O)O , what value of pKd is listed for sortase A (SrtA) (Staphylococcus aureus)?
3.72
